FYI, the data here is from ChEMBL document CHEMBL3822429.

Below, each of the compounds is paired with its reported inhibition value.
# Tgt: Histone-lysine N-methyltransferase EZH2 (Homo sapiens)
# Sequence (Q15910 whole entry, looked up): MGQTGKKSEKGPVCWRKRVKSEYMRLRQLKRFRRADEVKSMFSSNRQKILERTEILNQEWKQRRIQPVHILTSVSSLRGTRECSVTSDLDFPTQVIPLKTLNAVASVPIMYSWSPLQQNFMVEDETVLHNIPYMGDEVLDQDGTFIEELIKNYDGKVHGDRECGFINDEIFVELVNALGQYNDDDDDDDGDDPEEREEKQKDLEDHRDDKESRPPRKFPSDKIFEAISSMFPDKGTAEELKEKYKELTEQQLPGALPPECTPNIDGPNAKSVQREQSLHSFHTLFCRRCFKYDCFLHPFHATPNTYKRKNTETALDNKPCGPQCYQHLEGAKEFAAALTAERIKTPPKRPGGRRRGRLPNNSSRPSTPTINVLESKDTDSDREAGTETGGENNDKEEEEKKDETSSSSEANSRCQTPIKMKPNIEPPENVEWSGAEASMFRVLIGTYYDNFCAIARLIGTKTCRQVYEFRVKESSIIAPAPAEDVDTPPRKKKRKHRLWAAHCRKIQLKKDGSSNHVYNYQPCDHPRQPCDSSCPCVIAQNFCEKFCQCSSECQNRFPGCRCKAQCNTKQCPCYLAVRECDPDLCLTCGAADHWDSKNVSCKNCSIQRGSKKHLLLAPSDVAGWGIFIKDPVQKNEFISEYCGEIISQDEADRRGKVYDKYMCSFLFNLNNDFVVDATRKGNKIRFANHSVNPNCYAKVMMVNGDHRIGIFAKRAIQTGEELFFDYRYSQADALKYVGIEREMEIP
# Test: Inhibition of PRC2 EZH2 sub unit (unknown origin) assessed as inhibition of SAM-mediated methyl transfer process at 50 uM preincubated for 15 mins followed by addition of H3K27me and [3H]SAM as substrate measured after 90 mins by radioactive methylation assay
Please state the figure in %; there is no need to write the unit.

Compound	inhibition / %
OCCNCC(O)Cn1c2ccc(Br)cc2c2cc(Br)ccc21 (stereo unspecified)	-9
O=C(NC1CCSC1=O)c1cccc(C(=O)NC2CCSC2=O)c1 (stereo unspecified)	6
CC(=O)Nc1cc(C(=O)OC(C(=O)c2ccccc2)c2ccccc2)ccc1C (stereo unspecified)	2
O=C1c2ccccc2NC(c2c[nH]nc2-c2ccccc2)N1O (stereo unspecified)	9

// next entry
**Q:** So what's the measured inhibition for this one? CCN(CC)c1ccc2cc(-c3nnc(Nc4cc(OC)ccc4OC)o3)c(=O)oc2c1
**A:** 25
